Target: T1, transferrin (UniProt P02787 20-698)
T1 construct: transferrin (serotransferrin); One molecule for the transferrin immobilised for SPR, added to cells (co-IP with intervention, FRET) and co-precipitated from human PBMC / T cells; Methods are in the supplement; also called Tf
T1 sequence (P02787 20-698): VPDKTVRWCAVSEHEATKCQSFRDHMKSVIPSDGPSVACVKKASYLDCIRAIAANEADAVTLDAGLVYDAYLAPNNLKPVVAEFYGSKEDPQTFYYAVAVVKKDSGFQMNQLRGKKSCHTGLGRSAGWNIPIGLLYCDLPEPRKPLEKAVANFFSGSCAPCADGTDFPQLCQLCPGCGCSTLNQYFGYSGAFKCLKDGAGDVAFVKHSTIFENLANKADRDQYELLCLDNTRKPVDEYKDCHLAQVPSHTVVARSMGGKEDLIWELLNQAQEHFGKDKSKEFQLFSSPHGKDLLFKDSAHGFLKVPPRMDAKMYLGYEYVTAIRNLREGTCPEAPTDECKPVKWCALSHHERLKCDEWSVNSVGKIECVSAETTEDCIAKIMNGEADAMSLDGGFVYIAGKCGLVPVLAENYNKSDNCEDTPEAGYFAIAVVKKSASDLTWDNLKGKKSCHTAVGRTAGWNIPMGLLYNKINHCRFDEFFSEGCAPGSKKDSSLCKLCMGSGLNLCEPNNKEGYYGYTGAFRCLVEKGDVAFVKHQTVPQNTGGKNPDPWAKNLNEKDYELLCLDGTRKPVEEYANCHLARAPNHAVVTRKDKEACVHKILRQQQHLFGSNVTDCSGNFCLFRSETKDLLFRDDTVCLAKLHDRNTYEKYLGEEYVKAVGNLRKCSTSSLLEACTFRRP
Experiment: not stated; DK8 binding to transferrin, 'binding response value' and KD (Fig. S9C and E); method not given
test.readout: pKd
Numbers only, as −log10 of the molar value.

Note down pKd recorded for DMRSMDFK (amino acids 50 to 57 of TRAC (UniProt P01848); also called interfering peptide DK8; designed peptide (DK8)) [DK8]
6.78

This collection of values is drawn from paper PMC11731779.
